Measured melting point of individual entries

{"compound": "COc1ccc(OC)c(C(=O)/C=C/c2ccc(O)cc2)c1 [Compound 1, 2′,5′-Dimethoxy-4-hydroxychalcone]", "melting point": "127 to 128 °C"}
{"compound": "COc1ccc(OC)c(C(=O)/C=C/c2ccc(Cl)c(Cl)c2)c1 [Compound 3, 3,4Dichloro-2′,5′-dimethoxychalcone]", "melting point": "121 to 123 °C"}
{"compound": "O=C(/C=C/c1ccsc1)c1cc(O)ccc1O [Compound 7, 2′,5′-Dihydroxy-3-thienylchalcone]", "melting point": "156 to 157 °C"}
{"compound": "O=C(/C=C/c1ccc(Cl)c(Cl)c1)c1cc(O)ccc1O [Compound 4, 3,4-Dichloro-2′,5′-dihydroxychalcone]", "melting point": "171 to 174 °C"}
{"compound": "CCCOc1ccc(O)c(C(=O)/C=C/c2ccc(Cl)c(Cl)c2)c1 [Compound 6]", "melting point": "97 to 99 °C"}
{"compound": "CCOc1ccc(OCC)c(C(=O)/C=C/c2ccc(Cl)c(Cl)c2)c1 [Compound 5, 3,4-Dichloro-2′,5′-diethoxychalcone]", "melting point": "152 to 153 °C"}
{"compound": "COc1ccc(OC)c(C(=O)/C=C/c2ccc(Br)cc2)c1 [Compound 2, 4-Bromo-2′,5′-dimethoxychalcone]", "melting point": "85 to 87 °C"}
